system tested: Prostaglandin E2 receptor EP3 subtype (Homo sapiens)
Sequence (P43115 whole entry): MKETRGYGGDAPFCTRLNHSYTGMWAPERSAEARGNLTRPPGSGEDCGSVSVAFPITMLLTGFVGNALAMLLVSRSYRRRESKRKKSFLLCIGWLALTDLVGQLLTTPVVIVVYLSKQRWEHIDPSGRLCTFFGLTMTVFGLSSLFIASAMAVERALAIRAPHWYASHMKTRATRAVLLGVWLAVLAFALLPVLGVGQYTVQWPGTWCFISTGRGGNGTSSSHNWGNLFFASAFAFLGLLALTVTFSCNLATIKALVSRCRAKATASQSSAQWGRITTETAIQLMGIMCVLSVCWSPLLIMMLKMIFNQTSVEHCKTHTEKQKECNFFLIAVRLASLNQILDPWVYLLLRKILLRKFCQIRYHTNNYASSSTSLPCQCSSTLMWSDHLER
assay info: Displacement of [3H]prostaglandin E2 from full-length recombinant human EP3 receptor expressed in HEK293 cell membranes measured after 120 mins by scintillation counting method
pIC50: −log10 of the molar value.

>  <compound>
Cc1c(N2CCCC2)nc2ccc(Br)cc2c1C(=O)NC[C@H](CCC(=O)O)c1ccccc1Cl [BAY-6672]

>  <pIC50>
< 5.00

$$$$

---

Property: pIC50; scope: individual molecules
system tested: Prostaglandin F2-alpha receptor (Homo sapiens)
Sequence (P43088 whole entry): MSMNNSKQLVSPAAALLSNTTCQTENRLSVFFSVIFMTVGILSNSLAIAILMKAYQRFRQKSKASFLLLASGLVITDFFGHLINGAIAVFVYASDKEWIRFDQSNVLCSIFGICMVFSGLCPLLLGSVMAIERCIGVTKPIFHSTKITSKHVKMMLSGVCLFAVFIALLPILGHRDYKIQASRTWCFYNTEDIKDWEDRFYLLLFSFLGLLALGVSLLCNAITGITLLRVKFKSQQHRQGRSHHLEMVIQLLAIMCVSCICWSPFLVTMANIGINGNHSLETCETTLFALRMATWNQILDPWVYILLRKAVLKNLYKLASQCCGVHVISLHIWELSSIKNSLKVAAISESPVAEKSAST
assay info: Antagonist activity at human FPR expressed in human Chem-1 cells assessed as inhibition of PGF2alpha-induced calcium flux preincubated for 10 mins followed by PGF2alpha stimulation and measured for 120 secs by fluo-8 AM dye based fluorescence assay
Format: functional, cell-based
pIC50: −log10 of the molar value.

>  <molecule>
Cc1c(-c2ccccc2)nc2ccc(Br)cc2c1C(=O)Nc1ccc(C(=O)O)cc1F

>  <pIC50>
7.57

$$$$
>  <molecule>
Cc1c(-c2ccccc2)nc2ccc(Br)cc2c1C(=O)Nc1ccc(C(=O)O)cc1

>  <pIC50>
6.82

$$$$
>  <molecule>
Cc1c(-c2ccccc2)nc2ccc(Br)cc2c1COc1ccc(C(=O)O)cc1F

>  <pIC50>
6.60

$$$$
>  <molecule>
Cc1c(-c2ccccc2)nc2ccc(Br)cc2c1C(=O)NCC(C)c1ccccn1 (racemic)

>  <pIC50>
6.72

$$$$
>  <molecule>
Cc1c(-c2ccccc2)nc2ccc(Br)cc2c1C(=O)NCCc1ccccn1

>  <pIC50>
6.70

$$$$
>  <molecule>
Cc1c(-c2ccccc2)nc2ccc(Br)cc2c1C(=O)N(C)CCc1ccccn1

>  <pIC50>
4.82

$$$$
>  <molecule>
Cc1c(-c2ccccc2)nc2ccc(Br)cc2c1C(=O)NCC(CCC(=O)O)c1ccccc1Cl (single isomer, unassigned; (+))

>  <pIC50>
8.05

$$$$
>  <molecule>
Cc1c(-c2ccccc2)nc2ccc(Br)cc2c1CNc1ccc(C(=O)O)cc1F

>  <pIC50>
7.60

$$$$
>  <molecule>
Cc1c(-c2ccccc2)nc2ccc(Br)cc2c1C(=O)NCCc1cccnc1

>  <pIC50>
5.47

$$$$
